test system: OVCAR-8; assay: NCI tumour cell line growth inhibition, 48 h
Activity calls are given as the source filed them. Cut-off read from the data, not from the text of the source: active = GI50 up to about 1.1 µM and inactive = higher.
Field: GI50. Provide a value for each of the compounds that follow.

Data request: System OVCAR-8. Read-out GI50. Item CN(C)CC(/C(Cc1ccccc1)=N\NC(=O)c1ccncc1)c1ccccc1 (stereo unspecified) . Report value.
Data returned: 32.8 µM (inactive)

Data request: System OVCAR-8. Read-out GI50. Item CN(C)CCO/N=C1/C=C2CC[C@H]3[C@@H]4CC[C@H](O)[C@@]4(C)CC[C@@H]3[C@@]2(C)CC1 . Report value.
Data returned: 13.9 µM (inactive)

Data request: System OVCAR-8. Read-out GI50. Item CC1=NC(=Cc2cccc(Cl)c2)C(=O)N1n1c(-c2ccccc2)nc2ccccc2c1=O . Report value.
Data returned: 43.4 µM (inactive)

Data request: System OVCAR-8. Read-out GI50. Item C/C(=N\NS(=O)(=O)c1ccc(C)cc1)c1ccc[n+]([O-])n1 . Report value.
Data returned: 99.3 µM (inactive)

Data request: System OVCAR-8. Read-out GI50. Item C/C(CC/C(C)=N/O)=N\O . Report value.
Data returned: > 100 µM (inactive)

Data request: System OVCAR-8. Read-out GI50. Item CCCOP1(=O)C=C(O)C(Cl)=C(C)C1 (stereo unspecified) . Report value.
Data returned: > 100 µM (inactive)

Data request: System OVCAR-8. Read-out GI50. Item CC(C)C(=O)/C=C/c1ccc(Br)cc1 . Report value.
Data returned: 23.2 µM (inactive)

Data request: System OVCAR-8. Read-out GI50. Item COCC#C[C@@]1(O)CCCCC1CC(OC)OC (stereo partly specified) . Report value.
Data returned: 51.6 µM (inactive)

Data request: System OVCAR-8. Read-out GI50. Item C=C1CCC2[C@@H](CCC3[C@]2(C)CCC[C@]3(C)C(=O)OC)C1CCO (stereo partly specified) . Report value.
Data returned: 18.8 µM (inactive)

Data request: System OVCAR-8. Read-out GI50. Item COc1c2c(nc3ccccc13)-c1cc3c(c(=O)n1C2)COC(=O)C3(O)CC(=O)N1CCOCC1 (stereo unspecified) . Report value.
Data returned: 3.58 µM (inactive)

Data request: System OVCAR-8. Read-out GI50. Item O=C(O)CNS(=O)(=O)c1ccc(NC(=O)c2ccc(F)cc2)cc1 . Report value.
Data returned: > 100 µM (inactive)

All figures here come from ChEMBL document CHEMBL1201862.
